Values were extracted from ChEMBL document CHEMBL3272291.

# Tested on: Mus musculus
# experiment: Uterotropic activity in immature mouse assessed as change in uterus weight at 25 mg/kg, sc relative to control
# Assay type: Functional, organism-based
# Set-up: dose 25 mg/kg, route subcutaneous
# condition: in vivo

[
  {
    "chemical_structure": "CC(C)(COC(=O)CCC(=O)O)Oc1ccc2c(c1)CCc1c-2ccc2c1CCC2(C)C",
    "measurement_target": "Mus musculus",
    "Activity, mg": 20.6
  },
  {
    "chemical_structure": "CCN(CC)CCOc1ccc2c(c1)CCc1c-2ccc2c1CCC2(C)C.O=C(O)C(=O)O",
    "measurement_target": "Mus musculus",
    "Activity, mg": 16.4
  },
  {
    "chemical_structure": "CC1(C)CCc2c1ccc1c2CCc2cc(OCCN3CCCC3)ccc2-1",
    "measurement_target": "Mus musculus",
    "Activity, mg": 11.2
  },
  {
    "chemical_structure": "CC(C)(Oc1ccc2c(c1)CCc1c-2ccc2c1CCC2(C)C)C(=O)O",
    "measurement_target": "Mus musculus",
    "Activity, mg": 17.2
  }
]

====

# System: Rattus norvegicus
# experiment: Cholesterol-lowering activity in propylthiouracil-induced hypercholesterolemic rat model assessed as change in plasma cholesterol at 10 mg/kg administered intragastrically relative to control
# Assay type: functional
# condition: route intragastric

[
  {
    "molecule": "CC(Oc1ccc2c(c1)CCc1c-2ccc2c1CCC2(C)C)C(=O)O (stereo not given)",
    "measurement_target": "Rattus norvegicus",
    "quantity_unit": "%",
    "Activity": 3
  },
  {
    "molecule": "CC(C)(Oc1ccc2c(c1)CCc1c-2ccc2c1CCC2(C)C)C(=O)O",
    "measurement_target": "Rattus norvegicus",
    "quantity_unit": "%",
    "Activity": -18
  },
  {
    "molecule": "CCN(CC)CCOc1ccc2c(c1)CCc1c-2ccc2c1CCC2(C)C.O=C(O)C(=O)O",
    "measurement_target": "Rattus norvegicus",
    "quantity_unit": "%",
    "Activity": -19
  },
  {
    "molecule": "CCOC(=O)C(C)(C)Oc1ccc(Cl)cc1 [CLOFIBRATE]",
    "measurement_target": "Rattus norvegicus",
    "quantity_unit": "%",
    "Activity": 1
  },
  {
    "molecule": "COC(=O)CCC(=O)OCC(C)(C)Oc1ccc2c(c1)CCc1c-2ccc2c1CCC2(C)C",
    "measurement_target": "Rattus norvegicus",
    "quantity_unit": "%",
    "Activity": -18
  }
]

====

# Test system: Mus musculus
# experiment: Uterotropic activity in immature mouse assessed as change in uterus weight at 250 mg/kg, sc relative to control
# Assay type: organism-based
# Set-up: dose 250 mg/kg, route subcutaneous
# condition: in vivo
Items are presented alongside their recorded Activity.
attribute_measured: Activity (mg)

[
  {
    "chemical_structure": "COC(=O)CCC(=O)OCC(C)(C)Oc1ccc2c(c1)CCc1c-2ccc2c1CCC2(C)C",
    "endpoint_value": 15.7
  },
  {
    "chemical_structure": "CC(C)(CO)Oc1ccc2c(c1)CCc1c-2ccc2c1CCC2(C)C",
    "endpoint_value": 13.4
  },
  {
    "chemical_structure": "CC1(C)CCc2c1ccc1c2CCc2cc(O)ccc2-1",
    "endpoint_value": 22.6
  },
  {
    "chemical_structure": "COc1ccc2c(c1)CCc1c-2ccc2c1CCC2(C)C",
    "endpoint_value": 22.6
  }
]
